Where do these numbers come from? They come from the supplement of paper PMC11417369.

Test system: PfHDP1 homeodomain (GST-tagged)
Test: gcPBM binding intensity (ln(normalized median fluorescence intensity)); higher = stronger DNA binding
Whole data set: some 25,000 sequences, median “ln(normalized median fluorescence intensity)” near 6.7, cut for the highest 2% near 10. Shown is part of a subset that was picked to be rich in the highest values.
Class assignment keyed on gcPBM binding intensity (ln), ranges bin 0 (below 7), bin 1 (7 to below 10), bin 2 (10 or more)

sequenceEntry: TGTATTAAAAATTTGGTGCAACTTTTACATAATAAT
assayTarget: PfHDP1 homeodomain (GST-tagged)
classAssignment: bin 2

State the class of the sequence shown: AATATTATTATTATTACACACACAATTATATTTACC [CACACA_site8061]
bin 0

Let us now turn to TCATACATTTTCCTTGCACACATTTATAATTAATGG [CACACA_site4511]
bin 1

Let us now turn to ATAATATTCGAGTGTGCACACAAACATACATATATA [CACACA_site3396]
bin 2

Let us now turn to TAAAGGAAATAAAAAACATGCAAATATGAAATATAT [TGCATGCA_site745]
bin 0
